# System: KM-H2;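 further: growth inhibition of KM-H2 cells, read out by a cell viability assay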
# experimentDescription: cells
# Assay type: functional, cell-based, Homo sapiens
# cond: Homo sapiens, KM-H2
# Description: SANGER: Inhibition of human KM-H2 cell growth in a cell viability assay.
assayReadout: IC50

Return IC50 (reported value) for this molecule: OC[C@H](Cc1ccccc1)Nc1nc(Oc2ccc3c(c2)CCC3)nc2c1ncn2Cc1ccc(-c2ccccc2)cc1
> 10200 nM

Return IC50 (reported value) for this molecule: O=C(NCCCNc1nc(Nc2cccc(NC(=O)N3CCCC3)c2)ncc1I)c1cccs1
> 5000 nM

Return IC50 (reported value) for this molecule: O=C1NC(=O)c2c1c(-c1ccccc1Cl)cc1[nH]c3ccc(O)cc3c21
> 2000 nM

Return IC50 (reported value) for this molecule: COC(=O)[C@H](CCSC)NC(=O)c1ccc(NC[C@@H](N)CS)cc1-c1ccccc1
> 1020 nM

Return IC50 (reported value) for this molecule: NC(=O)c1cccc(-c2cc(Nc3ccc(OC(F)(F)F)cc3)ncn2)c1
> 1280 nM

----------
Quick reference: IC50 of the listed items.
# System: ONS-76;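 further: growth inhibition of human ONS-76 cells, read out with a cell viability assay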
# experimentDescription: cells
# Assay type: functional, cell-based, Homo sapiens
# cond: Homo sapiens, ONS-76
# Description: SANGER: Inhibition of human ONS-76 cell growth in a cell viability assay.

| compound | observedMeasurement |
| --- | --- |
| NC1(c2ccc(-c3nc4ccn5c(=O)[nH]nc5c4cc3-c3ccccc3)cc2)CCC1 [MK-2206] | > 4000 nM |
| Nc1ccccc1NC(=O)c1ccc(CNC(=O)OCc2cccnc2)cc1 [ENTINOSTAT] | 582 nM |

# ---- query compound ----
Return IC50 (reported value) for this compound: O=C1NC(=O)c2c1c(-c1ccccc1Cl)cc1[nH]c3ccc(O)cc3c21
> 2000 nM

----------
# Test system: OMC-1;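 further: growth inhibition of the OMC-1 cell line, measured by a cell viability assay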
# experimentDescription: cells
# Type: functional, cell-based, Homo sapiens
# cond: Homo sapiens, OMC-1
# Description: SANGER: Inhibition of human OMC-1 cell growth in a cell viability assay.
assayReadout: IC50

Look over these answered cases.
| compound | assayReadout | observedMeasurement |
| --- | --- | --- |
| Cc1ccc(NC(=O)c2ccc(CN3CCN(C)CC3)cc2)cc1Nc1nccc(-c2cccnc2)n1 | IC50 | > 2000 nM |
| NC(=O)c1cccc(-c2cc(Nc3ccc(OC(F)(F)F)cc3)ncn2)c1 | IC50 | > 1280 nM |
| C=CC(=O)N1CCCC(Nc2nc(Nc3ccc(N(C)C(=O)CC)cc3)nc3[nH]cnc23)C1 (centres undefined) | IC50 | > 10200 nM |
| O=C1NC(=O)c2c1c(-c1ccccc1Cl)cc1[nH]c3ccc(O)cc3c21 | IC50 | > 2000 nM |
| COc1ccc(N(C(=O)Oc2c(C)cccc2C)c2ccnc(Nc3ccc(N4CCN(C)CC4)cc3)n2)c(OC)c1 | IC50 | > 5120 nM |
| CC1(C)CCC(c2ccc(Cl)cc2)=C(CN2CCN(c3ccc(C(=O)NS(=O)(=O)c4ccc(N[C@H](CCN5CCOCC5)CSc5ccccc5)c(S(=O)(=O)C(F)(F)F)c4)cc3)CC2)C1 | IC50 | 1860 nM |
| CC(C)C[C@H](NC(=O)[C@H](Cc1ccccc1)NC(=O)c1cnccn1)B(O)O | IC50 | 4.18 nM |
| CC1=C(/C=C/C(C)=C/C=C/C(C)=C/C(=O)O)C(C)(C)CCC1 | IC50 | > 10000 nM |

# ---- query compound ----
Return IC50 (reported value) for this compound: Cc1ccc(C(=O)Nc2ccc(CN3CCN(C)CC3)c(C(F)(F)F)c2)cc1C#Cc1cnc2cccnn12
> 512 nM
